FYI, the data here is from the supplement of paper PMC8728848.

target-under-test: GalNAc(b1-3)Gal
experiment: glycan array binding signal (z-score within array); higher = stronger binding
protocol-conditions: glycan notation: IUPAC condensed, linker removed
Only a selection was taken, and the strongest signals are over-represented in it overall.
reported-endpoint: glycan array binding signal (z-score)
A bare number is all that is needed in reply.

1. LngA (Escherichia coli) (protein) MLSVYNRTQKFKAEARKKIAKYHELRKQRGMSLLEVIIVLGIIGTIAAGVVILAQRAFDSRAVTDLVTNTNTVRVRMKDAYQRDGKYPDFVDPLSLTANTIKTDTSGIPAAQLVQLGKITPDEVRNNISGDFIAIGGALTSNGAQVKKGFAIELNGLSQEQCRSILGQVGNNWEYVAIGTSASGSYAMTATGVDMSVAASTTVLRSLGNNGQTTLTADKILSTCTAQVNSITLGSR	0.532

What measured glycan array binding signal (z-score) goes with FimD (Bordetella pertussis) (protein) MPARVISFCGAALAVWAGLAVQPAMAVDPPVDCGRALGLHFWSSASLISDQTPDGTLIGKPVVGRSLLSKSCKVPDDIKEDLSDNHDGEPVDIVLELGSNYKIRPQSYGHPGIVVDLPFGSTEETGIAIYIDFGSSPMQKVGERQWLYPQKGEVLFDVLTINGDNAEVRYQAIKVGPLKRPRKLVLSQFPNLFTYKWVFMRGTSQERVLAQGTIDTDVATSTIDLKTCRYTSQTVSLPIIQRSALTGVGTTLGMTDFQMPFWCYGWPKVSVYMSATKTQTGVDGVALPATGQAAGMASGVGVQLINGKTQQPVKLGLQGKIALPEAQQTESATFSLPMKAQYYQTSTSTSAGKLSVTYAVTLNYD ?
0.008
